B1: Osa-1-4 twister ribozyme (parent)
chain: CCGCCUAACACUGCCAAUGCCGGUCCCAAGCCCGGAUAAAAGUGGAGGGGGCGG

Variants of: B1
Test: self-cleavage, relative activity (ratio to wild type); higher = more cleavage; co-transcriptional
Each entry below carries its reported self-cleavage.
Output spec: single numeric token, no unit.

{"mutation.notation": "C21G G53C", "self-cleavage": 0.02}

Record C15G U24G , field self-cleavage: 0.02

Record A17G G34C , field self-cleavage: 0.41

Sample C31A U43G ; self-cleavage observed: 0.04

The variant identified as U12C U37G registered its self-cleavage at 0.66

For this variant ( G34U G42A ), measured self-cleavage is 0.13

self-cleavage measured on C15U G42C = 0.06

self-cleavage for A16G G34U is 0.82
